In this section we review reported Max. Activity values for a set of binders.
# measurementTarget: T1, γδ T cell receptor on human γδ T cells (human)
# T1 construct: Mixed population of primary cells; also called AG000003021 (γδ T cells)
# assay: flow cytometry, dose-response binding at 37° C. on human γδ T cells
Report only the number, with the unit fold over background understood.

In the examples that follow, each entry is paired with its recorded Max. Activity.
binder	measured
VG9B162 (antibody, human IgG1, lambda, V domains shown) VH: QVQLVESGAEVTKPGASVKVSCKASGYTFTGDYMHWVRQAPGQGLEWMGWINPNSGYTNYAQKFQGRVTMTRDTSISTAYMELSRLRSDDTAVYYCAREGDAFDVWGQGTMVTVSS VL: QLVLTQSSSASGSPGQSVTISCTGTSSDVGGYNYVSWYQQHPGKAPKLMIYEVSKRPSGVPDRFSGSKSGNTASLTVSGLQAEDEADYYCNSYAGSNNFEVFGGGTKLTVLG	1860
VG9B128 (antibody, human IgG1, kappa, V domains shown) VH: EVQLVESGGGVVQPGKSLRLSCTASGFTFGTYGMHWVRQAPGKGLDWVAVIWYNGSNKYYADSVKGRFTISRDNSKNTLYLQMNSLRTEDTAVYYCARGGFGESFDSWGQGTLVTVSS VL: DIVMTQTPATLSLSPGERATLSCRASQSVIDYLAWFQQKPGQAPRLLIYDASNRATGIPARFSGSGSGTDFTLTISSLEPEDFAVYYCQQRSNWPLTFGGGTKVEIKR	1480

Request: Query: Max. Activity; subject: VG9B409 (antibody, human IgG1, kappa, V domains shown) VH: EVQLVESGAEVKKPGASVKVSCKASGYTLTSYYMHWVRQAPGQGLEWMGIINPSGGSTSYAQKFQGRVTMTRDTSTSTVYMELSSLRSEDTAVYYCARGSYGWYFDLWGRGTLVTVSS VL: EIVLTQSPGTLSLSPGERATLSCRASQSVTSSYLAWYQQKPGQTPRLLIYGASSRATGIPDRISGSGSGTDFTLTVSRLEPEDFAVYYCQQYGSSPPYTFGQGTKLEIKR
Response: 411

Request: And the next one, VG9B66 (antibody, human IgG1, kappa, V domains shown) VH: EVQLVESGGGLVKPGGSLRLSCAASGFTFSTYTMNWVRQAPGKGLEWVSSISSSSFYMDYADSVKGRFTISRDNAKNSLSLLMNSLRAEDTAVYYCARDGDIVATIRGSFDYWGQGTMVTVSS VL: EIVLTQSPSSLSTSVGDRVTITCRASQDITNFLAWYQQKPGKLPKLLIYTASTLQSGVPSRFSGSASGPDFTLTISSLQPEDVATYYCQKYNSAPFTFGPGTKVEIKR ?
Response: 1220

Request: Param item: VG9B21 (antibody, human IgG1, kappa, V domains shown) VH: EVQLLESGGGLVKPGGSLRLSCAASGFSFSNYDMNWVRQAPRKGLEWVSSISSSSHYIYYADSLKGRFTISRDNAKNSLFLQMNSLRAEDTAVYYCARDRGVTTDYYYYALDVWGQGTMVTVSS VL: DIVMTQSPSSLSASVGDRVTITCRASQGIYNYLAWYQQKPGNVPKLLIYAASTLQSGVPSRFSGSGSGTDFSLTISSLQPEDFTTYYCQKYNRAPFTFGPGTKVDIKR
Response: 1670
